Test system: mice
Assay: In vivo delivery of FLuc-mRNA lipid nanoparticles in mice, in vivo imaging (IVIS)
Conditions: Fluc-mRNA LNP; route IV; organ: lung; formulation, molar ratio and N/P as in the table
Method: After the preparation was completed, the preparation was injected intramuscularly (mice rectus femoris muscle of the thigh), intravenously (mice tail vein), or intraperitoneal injection or subcutaneous injection (subcutaneous on the back), with approximately 75 μL per mouse, for a total of 3 mice. After a certain time of injection, in vivo imaging (PerkinElmer, IVIS Lumina III) was performed. […]
In this section, each of the molecules is paired with its reported % of organ targeting.
Give just the numeric value; % need not be written.

molecule="CCCCCCCCCCCCCCN(C)C(=O)C(O)CN(CCN(C)CCN(CC(O)C(=O)N(C)CCCCCCCCCCCCCC)CC(O)C(=O)N(C)CCCCCCCCCCCCCC)CC(O)C(=O)N(C)CCCCCCCCCCCCCC (centres unmarked)" endpoint_name="% of organ targeting" reported_measurement=75.97
molecule="CCCCCCCCCCOC(=O)CCCNC(=O)C(O)CN(CCN(C)CCN(CC(O)C(=O)NCCCC(=O)OCCCCCCCCCC)CC(O)C(=O)NCCCC(=O)OCCCCCCCCCC)CC(O)C(=O)NCCCC(=O)OCCCCCCCCCC (centres unmarked)" endpoint_name="% of organ targeting" reported_measurement=96.51
molecule="CCCCCCCC(CCCCCCC)OC(=O)CCCNC(=O)C(O)CN(CCCN(CC(O)C(=O)NCCCC(=O)OC(CCCCCCC)CCCCCCC)CC(O)C(=O)NCCCC(=O)OC(CCCCCCC)CCCCCCC)CCCN(CC(O)C(=O)NCCCC(=O)OC(CCCCCCC)CCCCCCC)CC(O)C(=O)NCCCC(=O)OC(CCCCCCC)CCCCCCC (centres unmarked)" endpoint_name="% of organ targeting" reported_measurement=0.39

% of organ targeting lookup needed for CCCCCCCCC(CCCCCC)C(=O)NCCOC(=O)C(O)CN(CCCN(C)CCCN(CC(O)C(=O)OCCNC(=O)C(CCCCCC)CCCCCCCC)CC(O)C(=O)OCCNC(=O)C(CCCCCC)CCCCCCCC)CC(O)C(=O)OCCNC(=O)C(CCCCCC)CCCCCCCC (centres unmarked) , thanks. 13.53

Next up: CCCCCCCCC(CCCCCC)C(=O)OCCCCNC(=O)C(O)CCN(CCCN(C)CCN(CC(O)C(=O)NCCCCOC(=O)C(CCCCCC)CCCCCCCC)CC(O)C(=O)NCCCCOC(=O)C(CCCCCC)CCCCCCCC)C(O)C(=O)NCCCCOC(=O)C(CCCCCC)CCCCCCCC (centres unmarked) 4.20

----------
System: mice
Assay: In vivo delivery of FLuc-mRNA lipid nanoparticles in mice, in vivo imaging (IVIS)
Details: Fluc-mRNA LNP; route IV; organ: spleen; formulation, molar ratio and N/P as in the table
endpoint_name: IVIS
// print number alone

Sample records with IVIS:
molecule="CCCCCCC(CCCCCC)C(=O)NCCNC(=O)C(O)CN(CCCN(CC(O)C(=O)NCCNC(=O)C(CCCCCC)CCCCCC)CC(O)C(=O)NCCNC(=O)C(CCCCCC)CCCCCC)CCCN(CC(O)C(=O)NCCNC(=O)C(CCCCCC)CCCCCC)CC(O)C(=O)NCCNC(=O)C(CCCCCC)CCCCCC (centres unmarked)" endpoint_name=IVIS reported_measurement=1.22E+07
molecule="CCCCCCC(CCCCCC)C(=O)OCCCCCCNC(=O)C(O)CN(CCN(C)CCN(CC(O)C(=O)NCCCCCCOC(=O)C(CCCCCC)CCCCCC)CC(O)C(=O)NCCCCCCOC(=O)C(CCCCCC)CCCCCC)CC(O)C(=O)NCCCCCCOC(=O)C(CCCCCC)CCCCCC (centres unmarked)" endpoint_name=IVIS reported_measurement=9.08E+07

What measured IVIS goes with CCCCCCCCN(C)C(=O)C(O)CN(CCCN(C)CCCN(CC(O)C(=O)N(C)CCCCCCCC)CC(O)C(=O)N(C)CCCCCCCC)CC(O)C(=O)N(C)CCCCCCCC (centres unmarked) ? 8.57E+05

# iterate: CCCCCCCCCCOC(=O)CCCNC(=O)C(O)CN(CCCN(C)CCCN(CC(O)C(=O)NCCCC(=O)OCCCCCCCCCC)CC(O)C(=O)NCCCC(=O)OCCCCCCCCCC)CC(O)C(=O)NCCCC(=O)OCCCCCCCCCC (centres unmarked) 1.94E+06

Same for CCCCCCCCC(CCCCCC)C(=O)OCCCCNC(=O)C(O)CN(CCCN(C)CCCN(CC(O)C(=O)NCCCCOC(=O)C(CCCCCC)CCCCCCCC)CC(O)C(=O)NCCCCOC(=O)C(CCCCCC)CCCCCCCC)CC(O)C(=O)NCCCCOC(=O)C(CCCCCC)CCCCCCCC (centres unmarked) 7.23E+07

Item: CCCCCCCCC(CCCCCC)C(=O)OCCCCNC(=O)C(O)CCN(CCCN(C)CCN(CC(O)C(=O)NCCCCOC(=O)C(CCCCCC)CCCCCCCC)CC(O)C(=O)NCCCCOC(=O)C(CCCCCC)CCCCCCCC)C(O)C(=O)NCCCCOC(=O)C(CCCCCC)CCCCCCCC (centres unmarked) 9.15E+07

What do you get for CCCCCCC(CCCCCC)C(=O)OCCCCNC(=O)C(O)CN(CCN(C)CCN(CC(O)C(=O)NCCCCOC(=O)C(CCCCCC)CCCCCC)CC(O)C(=O)NCCCCOC(=O)C(CCCCCC)CCCCCC)CC(O)C(=O)NCCCCOC(=O)C(CCCCCC)CCCCCC (centres unmarked) ? 4.10E+07

Let us now turn to CCCCCCC(CCCCC)C(=O)OCCCCNC(=O)C(O)CN(CCCN(C)CCCCN(CCC(O)C(=O)NCCOC(=O)C(CCCCCC)CCCCCC)C(O)C(=O)NCCCCOC(=O)C(CCCCCC)CCCCCC)CC(O)C(=O)NCCCCOC(=O)C(CCCCC)CCCCCC (centres unmarked) 3.69E+07
